Record form. Attribute: RHIZSO inhibition of mycelial growth rating. Fill in for each entry.
- System: Rhizoctonia solani
- assay.name: In vitro fungicidal activity, Rice sheath blight (RHIZSO)
- Type: cell-based
- Set-up: key: 0: None; 3: slight; 5: moderate; 7: severe; 9: complete
- condition.label: 10 ppm, 3-7 days of incubation
Give bare numbers.

Example cases with answers are listed next.
{"compound": "Cn1c(Cl)c(-c2c(F)cc(F)cc2F)c(=NCC(F)(F)F)n2ncnc12 [Example 1A]", "measured.number": 7}
{"compound": "CCn1c(Cl)c(-c2c(F)cc(F)cc2F)c(=NC(C)C(F)(F)F)n2ncnc12 (stereo not shown) [Example 3]", "measured.number": 5}
{"compound": "CC(N=c1c(-c2ccc(F)cc2F)c(Cl)n(C)c2ncnn12)C(F)(F)F (stereo not shown) [Example 7]", "measured.number": 5}

The compound CCn1cnn2c(=NC(C)C(F)(F)F)c(-c3c(F)cc(F)cc3F)c(Cl)nc12 (stereo not shown) [Example 10] showed RHIZSO inhibition of mycelial growth rating equal to 5
